Test system: D-VEGF
Test: SPR affinity measurements of GB1 peptidic compounds on immobilized D-VEGF
Assay type: binding
Details: Table 1; target D-VEGF; E01 point mutants expressed in E. coli
Metric Name: Kon (M⁻¹ s⁻¹)
# number only, unit M⁻¹ s⁻¹ dropped from output

What measured Kon goes with E01-S38K: E01 point mutant S38K (protein) MKIEEHHHHHHHHHHGGSTYKLILNGKTLKGETTTEAVDVYDAFDVFFVYAASNFKDFDDWTYDDATKTFTVTEGGSDK ?
204000

Would you kindly repeat that for E01-V22L: E01 point mutant V22L, His-tagged, expressed in E. coli (protein) MKIEEHHHHHHHHHHGGSTYKLILNGKTLKGETTTEAVDLYDAFDVFFVYAASNFSDFDDWTYDDATKTFTVTEGGSDK ?
411000

Would you kindly repeat that for E01-A34S: E01 point mutant A34S (protein) MKIEEHHHHHHHHHHGGSTYKLILNGKTLKGETTTEAVDVYDAFDVFFVYASSNFSDFDDWTYDDATKTFTVTEGGSDK ?
356000
